organism: Rattus norvegicus; experiment: DrugMatrix - Regimen: Daily Repeat; assay type: toxicity, organism-based, Sprague-Dawley; design: regimen Daily Repeat, gender Male, age 6-8 weeks; conditions: in vivo, po, 1500 mg/kg, 120 h, tissue Plasma, route oral GAVAGE, dose level High, time 5 day, vehicle .5 % CMC
Consider the following compounds; for each one, report its TOTAL BILIRUBIN.
Response body: numeric value in mg/dL, unit text excluded.

I'd like to know its TOTAL BILIRUBIN. The compound in question is O=c1cc(-c2ccccc2)oc2ccc3ccccc3c12
0.27

Give the measured TOTAL BILIRUBIN of CCOC(=O)[C@H](CCc1ccccc1)N[C@@H](C)C(=O)N1CCC[C@H]1C(=O)O .
0.13

Looking for the measured TOTAL BILIRUBIN of CC(C)(Sc1cc(C(C)(C)C)c(O)c(C(C)(C)C)c1)Sc1cc(C(C)(C)C)c(O)c(C(C)(C)C)c1 , can you help?
0.2

Endpoint output: TOTAL BILIRUBIN of Nc1nc2c(c(=O)[nH]1)N(C=O)C(CNc1ccc(C(=O)N[C@@H](CCC(=O)O)C(=O)O)cc1)CN2 (stereo not given in full) . Value?
0.2

# input compound: C[C@@H](O)[C@H]1C(=O)N2C(C(=O)O)=C(S[C@@H]3CN[C@H](C(=O)N(C)C)C3)[C@H](C)[C@H]12 ; wanted: its TOTAL BILIRUBIN
0.13

Origin of values: ChEMBL document CHEMBL3885881
